Tested on: RARg homodimer (NR concentration 270 nM)
Experiment: PBM binding z-score (relative to random genomic background probes); higher = stronger binding; sequences stand for … in GC…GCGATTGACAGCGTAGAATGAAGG
Answer not fulfilled if PBM binding z-score is under 0.04, and fulfilled if it is 0.04 or more.

>  <query-sequence>
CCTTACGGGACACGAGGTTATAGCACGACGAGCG

>  <assigned-class>
fulfilled

$$$$
>  <query-sequence>
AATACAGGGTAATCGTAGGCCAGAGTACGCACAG

>  <assigned-class>
fulfilled

$$$$
>  <query-sequence>
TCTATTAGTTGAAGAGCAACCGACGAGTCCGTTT

>  <assigned-class>
not fulfilled

$$$$
>  <query-sequence>
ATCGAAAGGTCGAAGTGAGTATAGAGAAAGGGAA

>  <assigned-class>
fulfilled

$$$$
>  <query-sequence>
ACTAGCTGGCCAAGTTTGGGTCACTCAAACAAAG

>  <assigned-class>
fulfilled

$$$$
